# target-desc: T1, wild type human PD-L1-Fc protein (SEQ ID NO: 107) (human)
# T1 construct: Extracellular human PD-L1 (amino acid 19-238) with Fc fragment of human IgG1, expressed in 293T cells and used as culture supernatant; also called WT PD-L1; wild-type PD-L1
# T1 sequence (chain, as listed by the source limits assumed): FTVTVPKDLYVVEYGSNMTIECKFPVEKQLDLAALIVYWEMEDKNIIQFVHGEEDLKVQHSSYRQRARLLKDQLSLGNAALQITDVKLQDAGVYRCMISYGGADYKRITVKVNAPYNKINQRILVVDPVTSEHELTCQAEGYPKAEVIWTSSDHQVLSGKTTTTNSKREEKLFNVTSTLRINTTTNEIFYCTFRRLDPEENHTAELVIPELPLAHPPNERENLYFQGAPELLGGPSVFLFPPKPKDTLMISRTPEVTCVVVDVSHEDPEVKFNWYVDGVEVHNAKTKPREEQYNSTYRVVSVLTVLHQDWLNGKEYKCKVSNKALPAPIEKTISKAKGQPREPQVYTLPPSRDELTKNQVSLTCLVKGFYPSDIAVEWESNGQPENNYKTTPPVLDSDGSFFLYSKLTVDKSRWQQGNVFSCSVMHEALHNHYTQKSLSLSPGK
# test: ELISA on captured PD-L1-Fc, as in Example 18A
Collected OD450 nM of sample-1 values appear next to each entry.
Reply with just the number (in OD450).

Past entries and their recorded results:
26F5 (antibody, V domains shown, Mouse monoclonal from hybridoma; also called mouse monoclonal antibody 26F5) VH: QVQLQQPGAELVKPGASVKLSCKASGYTFPSYWMHWMKQRPGQGLEWIGMIQPSTSGTIYNERFKNQVTLTVDKSSSTAYMQLSSQTSEDSAVYYCARGTGTVDYFDYWGQGTTLTVSS VL: DIVLTQSPASLAVSLGQRATISCRASESVDSYGNSFIHWYQQKPGQPPKLLIHRASNLESGIPATFSGSGSRTDFTLTINPVEADDVATYYCQQSKEDPYTFGGGTKLEIK | 1.39
4B6 (antibody, V domains shown, Mouse monoclonal purified from hybridoma; also called mouse monoclonal antibody 4B6) VH: EVQLQQSGPELVKPGASVKISCKASGYVFTDYYMNWVKQSHGKSLEWIGDINPNNGGTSYNHKFKGKATVTVDKSSRTAYMELLSLTSEDSAVYYCVKWGDGPFAYWGQGTLVTVSA VL: DIVMTQSQKFMSTSVGDRVSITCKASQNVGAAVAWYQQKPGQSPKLLIYSASNRYTGVPDRFTGSGSGTDFTLTISNMQSEDLADYFCQQYSNYPTFGSGTKLGIK | 1.43
22C9 (antibody, V domains shown, Mouse monoclonal from hybridoma; also called mouse monoclonal antibody 22C9) VH: QVQLQQSGAELVKPGASVKLSCKASGYTFTSYWMHWVWQRPGQGLEWIGMIHPNSDITNCNENFKHTVTLTVDKSSSTAYMQLSSLTSEDSAVFYCARSDGSSYWYFDVWGTGTTVTVSS VL: SIVMTQTPKFLSVSAGDRVTITCKAGQSVNNDVAWYQQKPGQSPKLLIYYASNRYTGVPDRFTGSGYGTDFTFTISTVQAEDLAVYFCQQDFSSPLTFGAGTKLELK | 1.9

Item: 23A11-H3L5 (antibody, V domains shown, Human IgG1 constant region with N297A; biotinylated in the alanine-scan ELISA; also called 23A11-H3L5-bio; humanized 23A11) VH: LVQLVQSGAEVKKPGASVKLSCKASGYIFTTYWIHWVKQRPGQGLEWIGMIQPNSGGTKYNDQFKNRATLTVDKSISTAYMELSRLTSDDTAVYYCARGAGTVDYFDYWGQGTTLSISS VL: DIVLTQSPASLAVSVGQRATITCRASESVDIYGNSFMHWYQQKPGQAPKLLIYRASNLESGIPARFSGSGSRTDFTLTINPVEANDTATYYCQQSNDDPYTFGGGTKLETK | OD450 nM of sample-1: 1.22

Item: 23F11 (antibody, V domains shown, also called mouse monoclonal antibody 23F11; clone 23F11) VH: QVQLQQPGAELVKPGASVKLSCKASGYSFTTYWMHWVKQRPGQGLEWIGMIQPNSGGTKYNEKFKKKATLTVDKSSTTASMELSSLTSEDSAVYYCARGAGTVDYFDYWGQGSTLTVSS VL: DIVLTHSPVSLAVSLGQRATISCRASESVDIYGNSFMHWYQQKPGQPPKLLIYRASNLESGIPARFSGSGSRTDFTLTINPVEADDVATYYCQQSTEDPYTFGGGTKLEIK | OD450 nM of sample-1: 1.65

Item: 18G4 (antibody, V domains shown, Mouse monoclonal from hybridoma; also called mouse monoclonal antibody 18G4) VH: QVQLQQPGTALVKPGASVKLSCKASGYTFSSYYIHWVKQRPGQGLEWIGNINPFNGGSIYNEKFKNKASLTVDTSSNTAYMQLSSLTSEDSAVYYCARWHFDYWGQGTSLTVSS VL: DIVMTQSPSSLAVTAGEKVTLKCKSSQSLLWSGNQNNYLSWYQQKQGQPPKLLIYGASIRESWVPDRFTGSGSGTDFTLTIGNVSAEDLAVYYCQHNHGSFLPYTFGGGTRLEIK | OD450 nM of sample-1: 1.56

Item: 23F11-H4L4 (antibody, V domains shown, Human IgG1 constant region with N297A; biotinylated in the alanine-scan ELISA; also called 23F11-H4L4-bio; humanized 23F11) VH: QVQLVQSGAEVKKPGASVKLSCKASGYIFTTYWMHWVKQRPGQGLEWIGMIQPNSGGTKYNEKFKKKATLTVDKSISTAYMELSRLTSDDTAVYYCARGAGTVDYFDYWGQGSTLTVSS VL: DIVLTQSPASLAVSVGQRATITCRASESVDIYGNSFMHWYQQKPGQPPKLLIYRASNLESGIPARFSGSGSRTDFTLTINPVEANDTATYYCQQSTEDPYTFGGGTKLEIK | OD450 nM of sample-1: 1.18
